molecular target: KRas G12C (Homo sapiens, UniProt P01116, G12C); assay: Cellular inhibition of KRas G12C measured by Phospho-ERK in NCI-H358 cells; format: cell-based; settings: pERK(Thr202/Tyr204) normalized with GAPDH, NCI-H358 cells, 3 hours; read-out: IC50
Sequence (P01116 1-188 isoform P01116-2 G12C): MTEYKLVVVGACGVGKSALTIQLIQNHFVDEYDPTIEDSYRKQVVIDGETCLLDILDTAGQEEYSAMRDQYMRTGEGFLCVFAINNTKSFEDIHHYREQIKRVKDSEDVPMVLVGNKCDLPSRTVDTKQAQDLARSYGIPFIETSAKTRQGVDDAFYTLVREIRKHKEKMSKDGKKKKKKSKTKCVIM
pIC50: −log10 of the molar value.
I'd appreciate it if you could supply pIC50 values for the items below.

C=CC(=O)N1CCN(c2nc(OCC(C)(C)N(C)C)nc3c2CCN(c2cccc4ccccc24)C3)CC1CC#N (stereo not drawn) [Example 397] | 6.00 to 10.00
CO[C@@H]1C[C@@H](COc2nc3c(c(N4CCN(C(=O)/C=C/CF)[C@@H](CC#N)C4)n2)CCN(c2cccc4cccc(Cl)c24)C3)N(C)C1 [Example 583] | 6.00 to 10.00
C=CC(=O)N1CCN(c2nc(OC[C@@H]3CCCN3C)nc3c2CCN(c2c(F)c(O)cc4ccccc24)C3)CC1 [Example 249] | 6.00 to 10.00
C=CC(=O)N1CCN(c2nc(O[C@H](C)CN(C)C)nc3c2CCN(c2cc(O)ccc2C(F)(F)F)C3)CC1 [Example 79] | < 6.00

# batch size: 2; output pIC50 per entry
1. Cc1cccc(N2CCc3c(nc(OC[C@@H]4CCCN4C)nc3N3CCN(C(=O)/C=C/CN4CCC(F)C4)[C@@H](CC#N)C3)C2)c1C (stereo partly drawn) [Example 476]
2. C=CC(=O)N1CCN(c2nc(OCCN(C)C)nc3c2CCN(c2cc(O)cc4ccccc24)C3)CC1C(=O)N(C)C (stereo not drawn) [Example 51]

Resp:
["6.00 to 10.00", "< 6.00"]

----------
I'd appreciate it if you could supply pIC50 values for the items below.
target: KRas G12C (Homo sapiens, UniProt P01116, G12C); assay: Cellular inhibition of KRas G12C measured by Phospho-ERK in NCI-H358 cells; assay type: cell-based; settings: pERK(Thr202/Tyr204) normalized with GAPDH, NCI-H358 cells, 3 hours; read-out: IC50
pIC50: −log10 of the molar value.

# batch size: 7; output pIC50 per entry
1. C=CC(=O)N1CCN(c2nc(OCC3CCN(C)C3)nc3c2CCN(c2c(C)ccc4[nH]ncc24)C3)CC1 (stereo not shown)
2. C=CC(=O)N1CCN(c2nc(O[C@H]3CCCN(C)C3)nc3c2CCN(c2cc(O)cc4ccccc24)C3)CC1
3. C=CC(=O)N1CCN(c2nc(OC[C@@H]3CCCN3C(C)C)nc3c2CCN(c2cc(O)cc4ccccc24)C3)CC1
4. C=CC(=O)N1CCN(c2nc(OC[C@H]3CCCC(=O)N3)nc3c2CCN(c2cc(O)cc4ccccc24)C3)CC1 (single isomer, unassigned)
5. C=CC(=O)N1CCN(c2nc(OCCCN(C)C)nc3c2CCN(c2cc(O)cc4ccccc24)C3)CC1
6. C=CC(=O)N1CCN(c2nc(OC[C@H]3CCCCN3C)nc3c2CCN(c2cccc4ccccc24)C3)C[C@@H]1CC#N
7. C=CC(=O)N1CCN(c2nc(OC[C@H]3CCN(C)C3)nc3c2CCN(c2cc(O)cc4ccccc24)C3)CC1

Resp:
["< 6.00", "< 6.00", "6.00 to 10.00", "< 6.00", "< 6.00", "6.00 to 10.00", "6.00 to 10.00"]

----------
molecular target: KRas G12C (Homo sapiens, UniProt P01116, G12C); experiment: Cellular inhibition of KRas G12C measured by Phospho-ERK in NCI-H358 cells; format: cell-based; conditions: pERK(Thr202/Tyr204) normalized with GAPDH, NCI-H358 cells, 3 hours; read-out: IC50
I'd appreciate it if you could supply IC50 values for the items below.

Use the examples below as a reference point.
C=CC(=O)N1CCN(c2nc(OC[C@@H]3CCCN3C)nc3c2CCN(c2c(C(F)(F)F)ccc4[nH]ncc24)C3)CC1CC#N (stereo partly shown) | 0.0001 to 1 µM
C=CC(=O)N1CCN(c2nc(OC[C@@H]3CCCN3C)nc3c2CCN(c2ccc(F)c4ccccc24)C3)CC1CC#N (stereo partly shown) | 0.0001 to 1 µM
C=CC(=O)N1CCN(c2nc(OC[C@@H]3CCCN3C)nc3c2CCN(c2nncc4ccccc24)C3)C[C@@H]1CC#N | > 1 µM
C=CC(=O)N1CCN(c2nc(OC(C)CNC)nc3c2CCN(c2cc(O)cc4ccccc24)C3)CC1 (stereo not shown) | > 1 µM
C=C(F)C(=O)N1CCN(c2nc(OC[C@H]3C[C@@H](OC)CN3C)nc3c2CCN(c2cccc4cccc(C)c24)C3)C[C@@H]1CC#N | 0.0001 to 1 µM
C=CC(=O)N1CCN(c2nc(OCCN3CCC(F)(F)CC3)nc3c2CCN(c2cccc4cccc(Cl)c24)C3)C[C@@H]1CC#N | 0.0001 to 1 µM
C=CC(=O)N1CCN(c2nc(OC[C@@H]3CCCN3C)nc3c2CCN(c2cccc4ccc(OC)cc24)C3)CC1CC#N (stereo partly shown) [Example 255] | > 1 µM
C=CC(=O)N1CCN(c2ncnc3c2CCN(c2c(O)cccc2F)C3)CC1 | > 1 µM

# batch size: 2; output IC50 per entry
1. C=CC(=O)N1CCN(c2nc(OC[C@@H]3CCCN3C)nc3c2CCN(c2cccc4ccc(C)cc24)C3)CC1CC#N (stereo partly shown)
2. C=C(C(=O)N1CCN(c2nc(OC[C@@H]3CCCN3C)nc3c2CCN(c2cccc4cccc(Cl)c24)C3)C[C@@H]1CC#N)C(F)(F)F

Resp:
["0.0001 to 1 µM", "0.0001 to 1 µM"]

----------
I'd appreciate it if you could supply pIC50 values for the items below.
molecular target: KRas G12C (Homo sapiens, UniProt P01116, G12C); experiment: Cellular inhibition of KRas G12C measured by Phospho-ERK in NCI-H358 cells; assay type: cell-based; conditions: pERK(Thr202/Tyr204) normalized with GAPDH, NCI-H358 cells, 3 hours; read-out: IC50
pIC50: −log10 of the molar value.

Use the examples below as a reference point.
C=CC(=O)N1CCN(c2nc(OCCCN3CCOCC3)nc3c2CCN(c2cc(O)cc4cc(C)[nH]c24)C3)CC1 [Example 167] | < 6.00
C=CC(=O)N1CCN(c2nc(OC[C@@H]3C[C@@H](OC)CN3C)nc3c2CCN(c2cccc4ccccc24)C3)CC1CC#N (some centres unmarked) [Example 268] | 6.00 to 10.00
CCN1CCC[C@H]1COc1nc2c(c(N3CCN(C(=O)/C=C/CN(C)C)[C@@H](CC#N)C3)n1)CCN(c1cccc3ccccc13)C2 [Example 401] | 6.00 to 10.00

# batch size: 3; output pIC50 per entry
1. C=CC(=O)N1CCN(c2nc(OC[C@@H]3CCCN3C)nc3c2CCN(c2cccc4cccc(C)c24)C3)C[C@H]1CC#N [Example 461]
2. C=CC(=O)N1CCN(c2nc(OC[C@@H]3CCCN3C(C)C)nc3c2CCN(c2cccc4ccccc24)C3)CC1CC#N (some centres unmarked) [Example 252]
3. C=CC(=O)N1CCN(c2nc(OCCN(CC)CC)nc3c2CCN(c2cc(O)cc4ccccc24)C3)CC1 [Example 102]

Resp:
["6.00 to 10.00", "6.00 to 10.00", "6.00 to 10.00"]

----------
molecular target: KRas G12C (Homo sapiens, UniProt P01116, G12C); experiment: Cellular inhibition of KRas G12C measured by Phospho-ERK in NCI-H358 cells; format: cell-based; settings: pERK(Thr202/Tyr204) normalized with GAPDH, NCI-H358 cells, 3 hours; read-out: IC50
measured property: IC50

Use the examples below as a reference point.
C=CC(=O)N1CCN(c2nc(OC[C@@H]3CCCN3C)nc3c2CCN(c2cncc4ccccc24)C3)CC1CC#N (some centres unmarked) [Example 260] | 0.1 to 1000 nM
C=CC(=O)N1[C@@H]2CC[C@H]1CN(c1nc(OC(C)CN(C)C)nc3c1CCN(c1cc(O)cc4ccccc14)C3)C2 (some centres unmarked) | > 1000 nM
C=CC(=O)N1CCN(c2nc(OC[C@@H]3CCCN3C)nc3c2CCN(c2cccc4c2OCC4)C3)C[C@@H]1CC#N | 0.1 to 1000 nM
CN1CCC[C@H]1COc1nc2c(c(N3CCN(C(=O)/C=C/C(F)(F)F)[C@@H](CC#N)C3)n1)CCN(c1cccc3cccc(Cl)c13)C2 | 0.1 to 1000 nM
C=CC(=O)N1CCN(c2nc(OC[C@@H]3C[C@H](O)CN3C)nc3c2CCN(c2cccc4ccccc24)C3)CC1CC#N (some centres unmarked) | 0.1 to 1000 nM

# batch size: 5; output IC50 per entry
1. C=CC(=O)N1CCN(c2ncnc3c2CC(=O)N(c2cc(O)cc4ccccc24)C3)CC1
2. C=CC(=O)N1CCN(c2nc(OC[C@@H]3CCCN3C)nc3c2CCN(c2cccc4cnccc24)C3)CC1CC#N (some centres unmarked) [Example 262]
3. C=CC(=O)N1CCN(c2nc(OC[C@@H]3CCCN3C)nc3c2CCN(c2cccc4cccc(F)c24)C3)C[C@@H]1CC#N
4. C=CC(=O)N1CCN(c2nc(OC[C@H]3CN(C)C(C)(C)CO3)nc3c2CCN(c2cccc4ccccc24)C3)C[C@@H]1CC#N
5. C=CC(=O)N1CCN(c2nc(OC[C@@H]3CCCN3C)nc3c2CCN(c2cccc(Cl)c2OC)C3)C[C@@H]1CC#N

Resp:
1: > 1000 nM; 2: > 1000 nM; 3: 0.1 to 1000 nM; 4: 0.1 to 1000 nM; 5: 0.1 to 1000 nM

# batch size: 4; output IC50 per entry
1. C=CC(=O)N1CCN(c2nc(O[C@H](C)[C@H]3CCCN3C)nc3c2CCN(c2cc(O)cc4ccccc24)C3)CC1
2. C=CC(=O)N1CCN(c2nc(OC[C@@H]3CCCN3C)nc3c2CCN(c2ccccc2C#N)C3)C[C@@H]1CC#N
3. Cc1cc2[nH]ncc2c(N2CCc3c(nc(OC[C@@H]4CC(F)(F)CN4C)nc3N3CCN(C(=O)/C=C/CF)[C@@H](CC#N)C3)C2)c1C
4. C=C(F)C(=O)N1CCN(c2nc(OC[C@H]3C[C@@H](F)CN3C)nc3c2CCN(c2cccc4cccc(C)c24)C3)C[C@@H]1CC#N

Resp:
1. 0.1 to 1000 nM
2. > 1000 nM
3. 0.1 to 1000 nM
4. 0.1 to 1000 nM
